MEASURED_ON: Na^+, K^+ -ATPase (Canis lupus familiaris)
Construct: from tissue
PROCEDURE_SUMMARY: displacement of specific ^3 H-oubain binding from purified Na^+, K^+ -ATPase receptor
pIC50: −log10 of the molar value.
Given measured pIC50, output y if it is greater than or equal to 6 and n if not.

Task: State whether the measured pIC50 reaches 6, counting equality as reaching it, for CC[C@H](C1=CC(=O)OC1)[C@@]1(C)CC[C@H]2[C@@H](CC[C@@H]3C[C@@H](O)CC[C@@]32C)[C@@H]1O [Comp. I-e]
Output: y

Task: State whether the measured pIC50 reaches 6, counting equality as reaching it, for CN(C)CCO/N=C\C[C@H](C1=CC(=O)OC1)[C@@]1(C)CC[C@H]2[C@@H](CC[C@@H]3C[C@@H](O)CC[C@@]32C)C1=O [Comp. I-l]
Output: n

Task: State whether the measured pIC50 reaches 6, counting equality as reaching it, for CC[C@H](C1=CC(=O)OC1)[C@@]1(C)CC[C@H]2[C@@H](CC[C@@H]3C[C@@H](O)CC[C@@]32C)C1=O [Comp. I-d]
Output: y

Task: State whether the measured pIC50 reaches 6, counting equality as reaching it, for CN(C)CCO/N=C/C[C@H](C1=CC(=O)OC1)[C@@]1(C)CC[C@H]2[C@@H](CC[C@@H]3C[C@@H](O)CC[C@@]32C)C1=O [Comp. I-i]
Output: n

Task: State whether the measured pIC50 reaches 6, counting equality as reaching it, for C[C@]12CC[C@H](O)C[C@H]1CC[C@H]1C(=O)[C@@](C)([C@H](C/C=N/NC(=N)N)C3=CC(=O)OC3)CC[C@@H]12 [Comp. I-m]
Output: n

These data points were gathered from patent US5731345A.
